Taken from ChEMBL document CHEMBL4811223.

# System: HCT-116
# Method: Cytotoxicity against human HCT-116 cells assessed as cell growth inhibition after 48 hrs by MTT assay
# Format: functional, cell-based
# Experimental Parameters: HCT-116, 48 h
Reported values of IC50 for individual entries

Molecule Smiles | Target Or Test System | Readout Kind | Result
CC(=O)OC[C@@]12[C@H](O)[C@H](O)[C@]3(C)C(=CC[C@@H]4[C@@]5(C)CC[C@H](O[C@@H]6OC[C@H](O[C@@H]7O[C@H](CO)[C@@H](O)[C@H](O)[C@H]7O[C@@H]7OC[C@@H](O)[C@H](O)[C@H]7O)[C@H](O)[C@H]6O[C@@H]6O[C@H](CO)[C@@H](O)[C@H](O)[C@H]6O)C(C)(C)[C@@H]5CC[C@]43C)[C@@H]1CC(C)(C)C[C@@H]2O | HCT-116 | IC50 | 9.8 µM
CC(=O)O[C@H]1[C@H](OC(C)=O)[C@]2(CO)[C@H](O)[C@H](O)[C@]3(C)C(=CC[C@@H]4[C@@]5(C)CC[C@H](O[C@@H]6OC[C@H](O[C@@H]7O[C@H](CO)[C@@H](O)[C@H](O)[C@H]7O[C@@H]7OC[C@@H](O)[C@H](O)[C@H]7O)[C@H](O)[C@H]6O[C@@H]6O[C@H](CO)[C@@H](O)[C@H](O)[C@H]6O)C(C)(C)[C@@H]5CC[C@]43C)[C@@H]2CC1(C)C | HCT-116 | IC50 | > 10 µM

With those in mind, consider the next compound.
Exercise: What value of IC50 has been recorded for this entry: CC(=O)O[C@@H]1[C@H](O)[C@]2(C)C(=CC[C@@H]3[C@@]4(C)CC[C@H](O[C@@H]5OC[C@H](O[C@@H]6O[C@H](CO)[C@@H](O)[C@H](O)[C@H]6O[C@@H]6OC[C@@H](O)[C@H](O)[C@H]6O)[C@H](O)[C@H]5O[C@@H]5O[C@H](CO)[C@@H](O)[C@H](O)[C@H]5O)C(C)(C)[C@@H]4CC[C@]32C)[C@@H]2CC(C)(C)C[C@H](O)[C@]12CO
Key: > 10 µM
